Data origin, for the record: ChEMBL document CHEMBL3763101

Test: Cytotoxicity against mouse NCTC-929 cells assessed as cell viability after 48 hrs by MTT assay
Type: cell-based
CC50 at 48 h vs 80 µM: less than gives Criterion met; not less than gives Criterion not met.

Past entries and their recorded results:
> print(dat)
                                   compound     category.label
1              CCCCCCCC(=O)/C=C/c1ccc(O)cc1  Criterion not met
2                         CCCCNCc1ccc(O)cc1  Criterion not met
3                     CCCCCCCCNCc1ccc(O)cc1      Criterion met
4       O=C(Cn1ccnc1[N+](=O)[O-])NCc1ccccc1  Criterion not met
5  CCCCCCCCCCCCCCCCOP(=O)([O-])OCC[N+](C)(C)C  Criterion not met

Check if CC50 at 48 h falls below 80 µM for CCCCCCCCNC(=O)c1ccc(O)cc1 . Criterion met

Again, but for CCCCCCCCOC(=O)c1ccc(O)cc1 Criterion not met
